# measurement-protocol: yeast display, Sf9 membrane polyspecificity reagent, FACS + sequencing; frameworks hold sequencing errors

biopolymer-sequence	polyreactivity (PSR sort gate)
QVQLVESGGGLVQAGGSLRLSCAASGRIFTYNAMGWYRQAPGKERELVAAITRGGTTNYADSVKGRFTISRDNAKNTVYLQMNSLKPEDTAVYYCARAGAHPWWSRSTMYYWGQGTQVTVSS	low polyreactivity
QVQLVESGGGLVQAGGSLRLSCAASGFIFAGYAMGWYRQAPGKERELVAGITRNGGSTYYADSVKGRFTISRDNAKITVYFQMYSLNPEDTAVYYCAATRYSFGPRRVDYWRQGTQVTVSS	high polyreactivity
QVQLVESGGGLVQAGGSLRLSCAASGFTFKVYAMGWYRQAPGKERELVAAISKSGGSTYYADSVKGRFTISRDNAMNTVYLQMNSLKPEDTAVDYCATGGYAYVYPYDYWGQGTQVTVSS	low polyreactivity
QVQLVESGGGLVQAGGSLRLSCAASGSTFTIYAMGWYRQAPGTERELVATIRAGGGRTSYADSVKGRFTISRDNAKNTVYLQMNSLKPEETAVYYCAVYVRPTRYGYWGQGTQVTVSS	high polyreactivity
QVQLVESGGGLVQAGGSLRLSCAASGSTFGNAMGWYRQAPGKERELVAAISGSGSDTYYADSVKGRFTISRDNAKNTVYLQMNSLKPEDTAVYYCNTGWDPYGYDYWGQGTQVTVSS	low polyreactivity

---

# measurement-protocol: yeast display, Sf9 membrane polyspecificity reagent, FACS + sequencing; frameworks hold sequencing errors

biopolymer-sequence	polyreactivity (PSR sort gate)
QVQLVESGGGLVQAGGSLRLSCAASGSTIIRNAMGWSRQAPGKERELVAAISTSGGRTHYADSVKGRFTISRDNAKNTVYLQMNSLKPEDTAVYYCATRGKGHYYYWGQGTQVTVSS	high polyreactivity
QVQLVESGGGLVQAGGSLRLSCAASGITFRNYAMGWYRQAPGKERELVAAITTSGSRTYYADSVKGRFTISRDNAKNTVYLQMNSLKPEDTAVYYCAAEKAPWQYYDFEYWGQGTQVTVSS	high polyreactivity
QVQHVESGVGLVQAGGSLRLSCAASGSTFVPYAMGWYRQAPGKDRELVAAISSAGSTNYADSVKGRFTISRDNAKNTVYLQMNSLKPEDTAVYYCARDIQDTYEFDYWGQGTQVTVSS	low polyreactivity
QVQLVESGGVLVQAGGSLRITCAASGHIFFYDTMGWYRQAPGKERELVAGITIGGSTNYADSVKGRFTISRDNAKNTVSLQMNSLKPEDTAVYFCNVVKYVYIYSYWEYYYWGQCTQVTVSS	low polyreactivity
QVQLVESVGGLVQAGGSLRLSCAASGFTFTYNAMGWYRQAPGKERELVAAISRNGGRTYYADSVKGRFTISRDNAKNTVYLQMNSLKPEDTAVYYCNAVYYYYYWRVSIYDYWGQGTQVTVSS	high polyreactivity
QVQIVESGGGLVQAGGSLRISCAASGSIFIYYAMGWYRQAPGKDRELVAAISNGGSTNYADSVKGRFTISRDNANNTVYLLMNRLTPEDTSVFYCNKQYWYWSNTLTIRDYWGQGTQVTVSS	low polyreactivity
QVQLVESGGGLVQAGGSLRLSCAASGSIFRVYAMGWYRQAPGKEREFLAAITTRGGSTYYADSVKGRFTISRDNAKNTVYLQMNSLKPEDTAVYYCAARGWVSAYYGYDYWGQGTQVTVSS	high polyreactivity
QVQLVESGGGLVQAGGSLRLSCAASGRTFNYYNMGWYRQAPGKERELVAAISRGGTTYYADSVKGRFTISRDNAKKTVYLQMNSLKPEDTAVYYCAVAYAPRVQTVWSYVSGSTYYSWGQGTQVTVSS	high polyreactivity
QVQLVESGGGLVQAGGSLRLSCAASGRIFATNAMGWYRQAPGKEMELVATITRSAGRTYYADSVKGRFTISRDNAKNTVYLQMNSLKPEDTAVYYCAASYWDTEPGYREYDYWGQGTQVTVSS	low polyreactivity
QVQLEESGRGLVQAGGSLRLSCAASGFIFYRNTMGWYRQAPGKERELVAAISVSGGSTNYADSVKGRFTISRDNAKNTVYLQINSLKPEVTAVYYCAARVRESLVYGGWDDYWGQGTQVTVSS	high polyreactivity

---

# measurement-protocol: yeast display, Sf9 membrane polyspecificity reagent, FACS + sequencing; frameworks hold sequencing errors
quantity-kind: polyreactivity (PSR sort gate)

biopolymer-sequence	reading
QVQLVESGGGLVQAGGSLRLSCAASGFIFYKYAMGWYRQAPGKEREFVAAISSRGSRTYYADSVKGRFTISRDNAKNTVYLQMNSLKPEDTAVYYCAAGYWARLYDYDYWGQGTQVTVSS	high polyreactivity
QVQLVESAGRLVQEGGSLRLRSAASGSIFKYNTMGWYRQAAGKERELVAGISYGGRTYYADSVKGRFTISRDNAKNTVYLHMNSLKPEYTAVYYCAARWSYFKTTHRNNYWGQGTQVTVSS	high polyreactivity
QVQLVESGGGLVQAGGSLRLSCAASGRILGAYAMGWYRQPPGKERELVASISSGGRTYYADSVKGRFTISRDNAKNTVYLQMNSLKPEATAVYYCAKKKQLSVPASGYDYVYYWGQGTQVTVSS	high polyreactivity

---

# measurement-protocol: yeast display, Sf9 membrane polyspecificity reagent, FACS + sequencing; frameworks hold sequencing errors
quantity-kind: polyreactivity (PSR sort gate)

biopolymer-sequence	reading
QVQLVESGGGLVQAGGSLRLSCAASGRIFDCYAMGWDRQAPGKERELVAAIRASGGRTYYADSVKGRFTISRDNAKNTVYLQMNSLKPEDTAVYYCAADSVKYGGDYGGQGTQVTVSS	high polyreactivity
QVQLVESGGGLVQAGGSLRLSCAASGGTFGFNAMGWYRPAPGKERELVAAISSSGGRTYYADSVNGRFTISRDNAKNNVYLQMMSLKEEDTAVYYCAARVQVGGRSYVGYYYWGKGTQVTVSS	high polyreactivity
QVQLVESGGGLVQPGGSLRLSCAASGRTLHYNVMGWYRQAPGKEREFVAAITKSGGITYYADSVKGRFTISRDNAKNTVYLQMNSLKPEETAVDYCAADSPSWSWRISWSRYDYWGQGTQVTVSS	low polyreactivity
QFHHVESGGGLVQAGGSLRLTCAATGIIILGNAKGWYRQAPGKERELVATITSGGTTNYADSVKGRFTISRDNAKNTVYLQMNSLIPEDTAVYYCNKRSYDQQEYEYDYWGQGTQVTVSS	low polyreactivity
QVQLVESVGGLVQAGGSLRLSCAASGSIFGFYAMGWYRQAPGKERELDAVISSDASKNYADSVKGRFTISRDNAKNTVYLQMKSLKPEDTAVYYCNAVAYGYHFFSYYSVDYWGQGTQVTVSS	low polyreactivity
QVQLVESGGGLVQAGGSLRLSCAASGYTFSFYAMGWYRQATGKERELVAAISRSGGSTYYADSVKGRFTISRDNAKNTVYLQMNSLKPEDTAVYYCAARWPGAYHEYGYWGQGTQVTVSS	high polyreactivity
QVQLVESGGGLVQAGGSLRLSCAASGRTFWYNAMGWYRQAPGKERELVAAITSSGGSTYYADSVKGRFTISRDNAKNTVYLQMNSLKPEDTAVYYCNKRPGPYKWPPRHDYWGQGTQVTVSS	low polyreactivity
QVQLVESGGGLVQAGGSLRLSCAASGRTFTVNRMGWYRQAPGKERELVAGITLRGANTYYADSVKGRFTISRDNAKNTVYLQMNSLKPEDTAVYYCNDDVKYRYNHWGQGTQVTVSS	high polyreactivity
QVQLVESGGGLVQAGGSLRLSCAASGSIFDIYGMGWYRQAPGKERELVASISRGAGSTNYADSVKGRFTISRDNAKNTVYLQMNSLKPEDTAVYYCAAEVYVPDYFQHKFDVEYEYWGQGTQVTVSS	low polyreactivity
QVQLEESGGGLVQAGGSLRLSCAASGFIFSWYAMGWYRQAPGKERELVARISSSGGNTYYADSVKGRFTISRDNAKNTVYLQMNSLKPEDTAVYYCAATRYSLSGYGYWGQGTQVTVSS	high polyreactivity
QVQLVESGGGLVQAGGSLRLSCAASGITFWAYAMGWYRQAPGKERELVASISSGGSTYYADSVKGRFTISRDNAKNTVYLQMNSLKPEDTAVYYCAATTLRWYGDTFNYWGQGTQVTVSS	high polyreactivity

---

# measurement-protocol: yeast display, Sf9 membrane polyspecificity reagent, FACS + sequencing; frameworks hold sequencing errors
quantity-kind: polyreactivity (PSR sort gate)

biopolymer-sequence	reading
QVQLQERAAWCRRAGSLLLSCAASGNISDYYFMGWYRQAPAKERELVAAIAPGSNTYYADSVQGRFTISRDNAKKTVYLQMNSLKPEDTAVCFCAANSTQYTWFDDWGQGTQVPVSS	low polyreactivity
QVQLVESGGGLVQAGGSLRLSCAASGRIFPAYVMGWYRQAPVKERELVATIDNGGGTYYADSVKGRFTISRDNAKNTVYLQMNSLKPEDTAVYYCARDRHVRWGLKMDYWGLGTQVTVSS	low polyreactivity
QVQLVESGGGLVQAGCSLRLSCAASGSTYIRNAMGWYRQAPGKERELVAAISTSGSRTYYADSVKGRFTISRDNAKNTVYLQMNSLKPEDTAVYYCAKVPAGSRIEYDYCGQGTQVTVSS	high polyreactivity
QVQRVESGGGLVQAGGSLRLSSAASGSTFQEYAMGWYSQAPGKERELVASIRWSGGRTYYADSVKGRFTISRDQAKNTVELQMKSLKPEDTAVYYCNKDYYITLHESDGNGGEMDYWGQGTQVTVSS	low polyreactivity
QVQLLESGGGLGQAGGSLRLSCAASGSILSINGMGWYRQAPGKERELVATIDGSDGSTFYADSVKGRFTISRDNAKNTVYLQMNSQKPEDTAVYYCAAENFWQTKEYDYWGQGTQVTVSS	low polyreactivity
QVQLVESGGGLVQAGGSLRLSCAASGRTFPWYVMGWYRQAPGKERELVAAISSGGGKYYADSVKGRFTISRDNAKNTVFLQMNSLKPEDTAVYYCAGRLYYRRSFVREMYYWGQGSQVTVSS	high polyreactivity
